Reported AUC(0-inf) values for the following compounds.
Test: AUC (0 to infinity) in rat at 3 mg/kg, iv administered as single dose
Assay type: ADME, organism-based
Design: dose 3 mg/kg, route intravenous, time infinity
Details: in vivo

COMPOUND: NC(=O)c1cc(Cl)c2c(Cl)c(C#CC3CCCO3)n([C@H]3CCCNC3)c2n1 (stereo in doubt; 20b)
AUC(0-inf): 324 ng·h/mL
//
COMPOUND: COCCC#Cc1c(Cl)c2c(Cl)cc(C(N)=O)nc2n1[C@H]1CCCNC1
AUC(0-inf): 405 ng·h/mL
//
COMPOUND: NC(=O)c1cc(Cl)c2c(Cl)c(C#CC3CCOCC3)n([C@H]3CCCNC3)c2n1
AUC(0-inf): 440 ng·h/mL
